Measured values drawn from patent US20100179093A1 for this set.

The following molecules are shown together with reported pEC50 values.
- TARGET UNDER TEST: Y5R (Homo sapiens, UniProt Q15761)
- Sequence (Q15761 1-445): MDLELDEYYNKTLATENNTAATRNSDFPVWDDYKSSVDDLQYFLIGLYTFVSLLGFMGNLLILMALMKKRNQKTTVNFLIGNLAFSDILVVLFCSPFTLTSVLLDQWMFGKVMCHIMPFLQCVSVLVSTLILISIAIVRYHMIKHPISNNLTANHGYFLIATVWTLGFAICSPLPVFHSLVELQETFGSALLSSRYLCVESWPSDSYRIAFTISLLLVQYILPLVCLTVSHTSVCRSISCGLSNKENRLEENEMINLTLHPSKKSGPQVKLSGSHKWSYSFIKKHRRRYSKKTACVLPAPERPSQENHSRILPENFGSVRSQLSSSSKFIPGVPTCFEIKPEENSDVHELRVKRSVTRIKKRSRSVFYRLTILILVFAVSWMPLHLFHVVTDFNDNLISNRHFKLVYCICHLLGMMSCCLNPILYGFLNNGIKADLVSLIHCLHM
- EXPERIMENT SUMMARY: CaFlux Assay (FLIPR), Y5R
- Type: cell-based
pEC50: −log10 of the molar value.
MEASUREMENT KIND: pEC50

>>> assay_value("CCCCCCCCCCCCCCCC(=O)NCCCC[C@H](NC(=O)[C@@H](N)[C@@H](C)CC)C(=O)N1CCN(c2ccc3ncn(CC(=O)N[C@@H](CCCNC(=N)N)C(=O)N[C@@H](Cc4c[nH]cn4)C(=O)N[C@@H](Cc4ccc(O)cc4)C(=O)N[C@@H](CC(C)C)C(=O)N[C@@H](CC(N)=O)C(=O)N[C@@H](Cc4c[nH]c5ccccc45)C(=O)N[C@H](C(=O)N[C@H](C(=O)N[C@@H](CCCNC(=N)N)C(=O)N[C@@H](CCC(N)=O)C(=O)N(C)[C@@H](CCCNC(=N)N)C(=O)N[C@@H](Cc4ccc(O)cc4)C(N)=O)[C@@H](C)O)C(C)C)c(=O)c3c2)CC1")
4.90
>>> assay_value("CCCCCCCC(=O)NCCCC[C@H](NC(=O)[C@@H](NC(C)=O)[C@@H](C)CC)C(=O)N1CCN(c2ccc3ncn(CC(=O)N[C@@H](CCCNC(=N)N)C(=O)N[C@@H](Cc4c[nH]cn4)C(=O)N[C@@H](Cc4ccc(O)cc4)C(=O)N[C@@H](CC(C)C)C(=O)N[C@@H](CC(N)=O)C(=O)N[C@@H](Cc4c[nH]c5ccccc45)C(=O)N[C@H](C(=O)N[C@H](C(=O)N[C@@H](CCCNC(=N)N)C(=O)N[C@@H](CCC(N)=O)C(=O)N(C)[C@@H](CCCNC(=N)N)C(=O)N[C@@H](Cc4ccc(O)cc4)C(N)=O)[C@@H](C)O)C(C)C)c(=O)c3c2)CC1")
4.00
>>> assay_value("CCCC(=O)NCCCC[C@H](NC(=O)[C@@H](NC(C)=O)[C@@H](C)CC)C(=O)N1CCN(c2ccc3ncn(CC(=O)N[C@@H](CCCNC(=N)N)C(=O)N[C@@H](Cc4c[nH]cn4)C(=O)N[C@@H](Cc4ccc(O)cc4)C(=O)N[C@@H](CC(C)C)C(=O)N[C@@H](CC(N)=O)C(=O)N[C@@H](Cc4c[nH]c5ccccc45)C(=O)N[C@H](C(=O)N[C@H](C(=O)N[C@@H](CCCNC(=N)N)C(=O)N[C@@H](CCC(N)=O)C(=O)N(C)[C@@H](CCCNC(=N)N)C(=O)N[C@@H](Cc4ccc(O)cc4)C(N)=O)[C@@H](C)O)C(C)C)c(=O)c3c2)CC1")
4.60
